Where do these numbers come from? They come from patent USRE50528E1.

Consider the following compounds; for each one, report its pIC50.
Biological target: EGFR mutant T790M (Homo sapiens, UniProt P00533, T790M)
Construct: truncated human JAK3, EGFR mutants such as del E746-A750
Sequence (P00533 669-1210 T790M limits assumed): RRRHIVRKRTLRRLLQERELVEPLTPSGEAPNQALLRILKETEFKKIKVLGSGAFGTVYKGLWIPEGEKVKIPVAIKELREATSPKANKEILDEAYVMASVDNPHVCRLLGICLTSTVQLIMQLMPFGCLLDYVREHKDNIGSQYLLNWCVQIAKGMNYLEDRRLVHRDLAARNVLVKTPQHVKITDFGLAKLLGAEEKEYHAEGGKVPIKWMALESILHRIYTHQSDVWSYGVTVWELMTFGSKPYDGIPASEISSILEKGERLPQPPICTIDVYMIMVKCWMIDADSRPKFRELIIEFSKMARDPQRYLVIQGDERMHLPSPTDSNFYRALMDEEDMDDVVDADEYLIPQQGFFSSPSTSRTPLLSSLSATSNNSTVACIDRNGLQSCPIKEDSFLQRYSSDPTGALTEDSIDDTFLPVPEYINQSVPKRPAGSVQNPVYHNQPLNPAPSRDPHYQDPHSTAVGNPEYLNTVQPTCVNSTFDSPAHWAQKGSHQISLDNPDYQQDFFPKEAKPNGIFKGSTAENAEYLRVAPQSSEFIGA
Experiment: Kinase inhibition assay, EGFR mutant T790M
Details: biochemical potency
pIC50: −log10 of the molar value.

Problem: Query: pIC50; subject: C=CC(=O)Nc1cc(Nc2ncc(C)c(-n3cc(CN(C)C)c(C(C)(C)C)n3)n2)c(OC)cc1N1CCOCC1 [Compound 7]
Solution: > 7.70

Problem: Query: pIC50; subject: C=CC(=O)Nc1cc(Nc2nccc(-n3cc(CN4CCC4)c(C(C)C)n3)n2)c(OC)cc1N(C)CCOC [Compound 113]
Solution: > 7.70

Problem: Query: pIC50; subject: C=CC(=O)Nc1cc(Nc2nccc(-n3cc(CN4CC(O)C4)c(C)n3)n2)c(OC)cc1-c1cnn(C)c1 [Compound 58]
Solution: 6.70 to 7.70

Problem: Query: pIC50; subject: C=CC(=O)Nc1cc(Nc2nccc(-n3cc(CN4CCC4)c(C4CC4)n3)n2)c(OC)cc1N(C)C1COC1 [Compound 109]
Solution: > 7.70

Problem: Query: pIC50; subject: C=CC(=O)Nc1cc(Nc2nccc(-n3cc(CN4CCC4)c(C4CC4)n3)n2)c(OC)cc1N1CCN(C(C)=O)CC1 [Compound 138]
Solution: > 7.70

Problem: Query: pIC50; subject: C=CC(=O)Nc1cc(Nc2nccc(-n3cc(CN(C)C)c(-c4ccoc4)n3)n2)c(OC)cc1N1CCOCC1 [Compound 127]
Solution: > 7.70

Problem: Query: pIC50; subject: C=CC(=O)Nc1cc(Nc2ncc(F)c(-n3cc(CN4C[C@H](O)[C@H](OC)C4)c(C)n3)n2)c(OC)cc1N1CCOCC1 [Compound 61]
Solution: > 7.70

====

Consider the following compounds; for each one, report its IC50.
Target: EGFR mutant Del19/T790M (Homo sapiens, UniProt P00533, DEL746-750/T790M)
Construct: truncated human JAK3, EGFR mutants such as del E746-A750; purchased Carna Biosciences
Sequence (P00533 with tags, fused parts or gaps DEL746-750/T790M limits assumed): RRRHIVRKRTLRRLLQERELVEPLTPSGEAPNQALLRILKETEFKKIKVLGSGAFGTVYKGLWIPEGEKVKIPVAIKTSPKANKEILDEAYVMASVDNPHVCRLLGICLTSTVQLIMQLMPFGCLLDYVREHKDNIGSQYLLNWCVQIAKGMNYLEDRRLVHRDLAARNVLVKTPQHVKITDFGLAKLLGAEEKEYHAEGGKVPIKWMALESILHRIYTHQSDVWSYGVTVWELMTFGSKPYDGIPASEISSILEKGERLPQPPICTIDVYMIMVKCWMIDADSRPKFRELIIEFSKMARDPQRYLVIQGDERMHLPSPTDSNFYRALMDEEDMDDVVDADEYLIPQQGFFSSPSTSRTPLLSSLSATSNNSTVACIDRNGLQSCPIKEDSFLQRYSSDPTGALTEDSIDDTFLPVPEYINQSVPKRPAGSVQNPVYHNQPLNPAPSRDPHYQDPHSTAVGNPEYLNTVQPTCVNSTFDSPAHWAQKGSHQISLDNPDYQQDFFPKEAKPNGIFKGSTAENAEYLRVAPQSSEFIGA
Experiment: Kinase inhibition assay, EGFR del E746-A750/T790M
Assay type: biochemical
Conditions: read-out: EGFR mutants Del19/T790M

Problem: Query: IC50; subject: C=CC(=O)Nc1cc(Nc2nccc(-n3cc(CN4CCC4)c(-c4ccccc4)n3)n2)c(OC)cc1N1CCC1 [Compound 87]
Solution: < 20 nM

Problem: Query: IC50; subject: C=CC(=O)Nc1cc(Nc2nccc(-n3cc(CN4CC[C@@H](N(C)C)C4)cn3)n2)c(OC)cc1N1CCOCC1 [Compound 39]
Solution: 20 to 200 nM

Problem: Query: IC50; subject: C=CC(=O)Nc1cc(Nc2ncc(C)c(-n3cc(CN4CCC4)cn3)n2)c(OC)cc1N1CCCOCC1 [Compound 40]
Solution: < 20 nM

Problem: Query: IC50; subject: C=CC(=O)Nc1cc(Nc2nccc(-n3nc(C)c(CN4CCC4)c3C)n2)c(OC)cc1N1CCOCC1 [Compound 70]
Solution: 20 to 200 nM

====

Target: EGFR mutant Del19 (E746-A750) (Homo sapiens, UniProt P00533, DEL746-750)
Construct: truncated human JAK3, EGFR mutants such as del E746-A750; purchased Carna Biosciences
Sequence (P00533 with tags, fused parts or gaps DEL746-750 limits assumed): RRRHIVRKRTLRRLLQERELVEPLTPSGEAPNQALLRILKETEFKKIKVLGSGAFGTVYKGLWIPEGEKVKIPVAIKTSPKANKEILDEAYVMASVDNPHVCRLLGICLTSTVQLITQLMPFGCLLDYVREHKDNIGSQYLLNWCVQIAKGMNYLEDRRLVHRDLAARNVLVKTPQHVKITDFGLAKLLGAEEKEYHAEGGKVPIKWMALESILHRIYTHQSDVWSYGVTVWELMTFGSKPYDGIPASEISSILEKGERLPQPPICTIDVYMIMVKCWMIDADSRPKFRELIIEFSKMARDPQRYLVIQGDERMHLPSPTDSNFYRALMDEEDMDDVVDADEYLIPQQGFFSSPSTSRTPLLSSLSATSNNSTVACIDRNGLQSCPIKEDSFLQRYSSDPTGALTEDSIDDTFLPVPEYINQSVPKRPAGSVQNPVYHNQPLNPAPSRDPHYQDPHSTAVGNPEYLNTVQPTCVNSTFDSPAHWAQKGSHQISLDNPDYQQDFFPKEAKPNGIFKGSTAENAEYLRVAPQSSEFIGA
Assay: Kinase inhibition assay, EGFR del E746-A750;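 also: truncated human EGFR mutant kinase, two-hour preincubation with compound, then one-hour reaction with ATP and ULight-PolyGT peptide, LANCE Europium-antibody phosphorylation readout, IC50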
Type: biochemical
Settings: read-out: EGFR mutants Del19 (E746-A750)
Assay endpoint: IC50

Problem: Query: IC50; subject: `C=CC(=O)Nc1cc(Nc2ncc(F)c(-n3cc(C)c(CN4CCC4)c3)n2)c(OC)cc1N1CCC1`
Solution: < 20 nM

Problem: Query: IC50; subject: `C=CC(=O)Nc1cc(Nc2nccc(-n3cc(CN4CCC4)c(-c4ccccc4)n3)n2)c(OC)cc1N1CCOCC1`
Solution: < 20 nM

Problem: Query: IC50; subject: `C=CC(=O)Nc1cc(Nc2nccc(-n3cc(CN4CCC4)c(C(C)C)n3)n2)c(OC)cc1N(C)CCOC`
Solution: < 20 nM

Problem: Query: IC50; subject: `C=CC(=O)Nc1cc(Nc2nccc(-n3cc(CN(C)C)c(C)n3)n2)c(OC)cc1N1CCN(C)CC1`
Solution: < 20 nM

Problem: Query: IC50; subject: `C=CC(=O)Nc1cc(Nc2ncc(F)c(-n3cc(CN4CCC4)c(-c4ccoc4)c3)n2)c(OC)cc1N1CCOCC1`
Solution: < 20 nM

Problem: Query: IC50; subject: `C=CC(=O)Nc1cc(Nc2nccc(-n3cc(CN(C)C)c(C(C)(C)C)n3)n2)c(OC)cc1N(C)CCOC`
Solution: < 20 nM

Problem: Query: IC50; subject: `C=CC(=O)Nc1cc(Nc2nccc(-n3cc(CN4CCC4)c(C(C)C)n3)n2)c(OC)cc1N(C)C1COC1`
Solution: < 20 nM

Problem: Query: IC50; subject: `C=CC(=O)Nc1cc(Nc2nccc(-n3cc(CN4CCCC4)c(-c4ccccc4)n3)n2)c(OC)cc1N1CCOCC1`
Solution: < 20 nM

Problem: Query: IC50; subject: `C=CC(=O)Nc1cc(Nc2nccc(-n3cc(CN(C)C)c(-c4ccccc4)n3)n2)c(OC)cc1N1CCOCC1`
Solution: < 20 nM

Problem: Query: IC50; subject: `C=CC(=O)Nc1cc(Nc2ncc(Cl)c(-n3cc(CN4C[C@@H](O)[C@@H](O)C4)c(C)n3)n2)c(OC)cc1N1CCN(C)CC1`
Solution: < 20 nM

Problem: Query: IC50; subject: `C=CC(=O)Nc1cc(Nc2ncc(C)c(-n3cc(CN4CC(O)C4)c(C)n3)n2)c(OC)cc1N(C)CCN(C)C`
Solution: < 20 nM

Problem: Query: IC50; subject: `C=CC(=O)Nc1cc(Nc2nccc(-n3cc(CN4CCC4)cn3)n2)c(OC)cc1N(C)C`
Solution: < 20 nM

Problem: Query: IC50; subject: `C=CC(=O)Nc1cc(Nc2nccc(-n3cc(CN(C)C)c(C(C)C)n3)n2)c(OC)cc1N(C)C1COC1`
Solution: < 20 nM

Problem: Query: IC50; subject: `C=CC(=O)Nc1cc(Nc2nccc(-n3cc(CN4CCC4)c(C(C)C)n3)n2)c(OC)cc1N1CCOCC1`
Solution: < 20 nM

====

Biological target: EGFR mutant T790M (Homo sapiens, UniProt P00533, T790M)
Construct: truncated human JAK3, EGFR mutants such as del E746-A750
Test: Kinase inhibition assay, EGFR mutant T790M
Settings: biochemical potency
pIC50: −log10 of the molar value.
Consider the following compounds; for each one, report its pIC50.

Problem: Query: pIC50; subject: `C=CC(=O)Nc1cc(Nc2nccc(-n3cc(CN(C)C)c(C(C)(C)C)n3)n2)c(OC)cc1N1CCOCC1`
Solution: 6.70 to 7.70

Problem: Query: pIC50; subject: `C=CC(=O)Nc1cc(Nc2nccc(-n3cc(CN(C)C)c(C4CC4)n3)n2)c(OC)cc1N1CCN(C(C)=O)CC1`
Solution: > 7.70

Problem: Query: pIC50; subject: `C=CC(=O)Nc1cc(Nc2nccc(-n3cc(CN4CCC4)c(C(C)C)n3)n2)c(OC)cc1N1CCOCC1`
Solution: > 7.70

Problem: Query: pIC50; subject: `C=CC(=O)Nc1cc(Nc2nccc(-n3cc(CN(C)C)c(-c4ccccc4)n3)n2)c(OC)cc1N1CCCC1`
Solution: 6.70 to 7.70

Problem: Query: pIC50; subject: `C=CC(=O)Nc1cc(Nc2ncc(C)c(-n3cc(CN4CCC4)c(C)n3)n2)c(OC)cc1N1CCOCC1`
Solution: > 7.70

Problem: Query: pIC50; subject: `C=CC(=O)Nc1cc(Nc2nccc(-n3cc(CN(C)C)c(-c4ccc(F)cc4)n3)n2)c(OC)cc1N1CCOCC1`
Solution: 6.70 to 7.70

Problem: Query: pIC50; subject: `C=CC(=O)Nc1cc(Nc2ncc(F)c(-n3cc(C)c(CN4CCC4)c3)n2)c(OC)cc1N1CCOCC1`
Solution: 6.70 to 7.70

====

Biological target: EGFR mutant T790M (Homo sapiens, UniProt P00533, T790M)
Construct: truncated human JAK3, EGFR mutants such as del E746-A750
Assay: Kinase inhibition assay, EGFR mutant T790M;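 also: truncated human EGFR mutant enzyme preincubated two hours with compound, then ATP plus ULight-PolyGT peptide for one hour, Europium-labeled antibody LANCE detection, IC50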
Settings: biochemical potency
Assay endpoint: IC50

Problem: Query: IC50; subject: `C=CC(=O)Nc1cc(Nc2ncc(C)c(-n3cc(CN4CCC4)cn3)n2)c(OC)cc1N1CCCOCC1`
Solution: < 20 nM

Problem: Query: IC50; subject: `C=CC(=O)Nc1cc(Nc2ncc(Cl)c(-n3cc(CN(C)C)cn3)n2)c(OC)cc1N1CCOCC1`
Solution: < 20 nM

Problem: Query: IC50; subject: `C=CC(=O)Nc1cc(Nc2nccc(-n3cc(CN4CCC4)c(C4CC4)n3)n2)c(OC)cc1N1CCOCC1`
Solution: < 20 nM

Problem: Query: IC50; subject: `C=CC(=O)Nc1cc(Nc2ncc(F)c(-n3cc(C)c(CN(C)C)c3)n2)c(OC)cc1N(C)C`
Solution: < 20 nM

Problem: Query: IC50; subject: `C=CC(=O)Nc1cc(Nc2ncc(F)c(-n3cc(C)c(CN4CCC4)c3)n2)c(OC)cc1N1CCC1`
Solution: < 20 nM

Problem: Query: IC50; subject: Cc1cc(Nc2nccc(-n3cc(CN4CC(O)C4)c(C4CC4)n3)n2)cc(C)c1OCCO [Compound 151, reference compound]
Solution: > 1000 nM

Problem: Query: IC50; subject: `C=CC(=O)Nc1ccc(OC)c(Nc2nccc(-n3ccc(C)n3)n2)c1`
Solution: 20 to 200 nM

Problem: Query: IC50; subject: `C=CC(=O)Nc1cc(Nc2nccc(-n3cc(CN4CCC4)c(C)n3)n2)c(OC)cc1N1CCCCC1`
Solution: < 20 nM

Problem: Query: IC50; subject: `C=CC(=O)Nc1cc(Nc2nccc(-n3cc(CN4CCC4)c(C)n3)n2)c(OC)cc1-c1ccccc1`
Solution: 201 to 1000 nM

Problem: Query: IC50; subject: `C=CC(=O)Nc1cc(Nc2ncc(C)c(-n3cc(CN4C[C@H](O)[C@H](OC)C4)cn3)n2)c(OC)cc1N(C)CCN(C)C`
Solution: < 20 nM

Problem: Query: IC50; subject: `C=CC(=O)Nc1cc(Nc2ncc(C)c(-n3cc(CN4CCC4)c(C4CC4)n3)n2)c(OC)cc1N1CCOCC1`
Solution: < 20 nM

Problem: Query: IC50; subject: `C=CC(=O)Nc1cc(Nc2nccc(-n3cc(CN(C)C)c(C(C)C)n3)n2)c(OC)cc1N(C)CCOC`
Solution: < 20 nM

Problem: Query: IC50; subject: `C=CC(=O)Nc1cc(Nc2ncc(C)c(-n3cc(CN4CC(O)C4)c(C)n3)n2)c(OC)cc1N1CCN(C)CC1`
Solution: < 20 nM

Problem: Query: IC50; subject: `C=CC(=O)Nc1cc(Nc2nccc(-n3cc(CN(C)C)c(C(C)(C)C)n3)n2)c(OC)cc1N(C)CCOC`
Solution: 20 to 200 nM

Problem: Query: IC50; subject: `C=CC(=O)Nc1cc(Nc2nccc(-n3cc(CN(C)C)c(C4CC4)n3)n2)c(OC)cc1N(C)C1COC1`
Solution: < 20 nM
